// provenance: ChEMBL document CHEMBL3808340

Test system: ACHN
Procedure details: Cytotoxicity against human ACHN cells after 72 hrs by sulforhodamine B assay
Type: functional
Sorting guide: entries reporting GI50 beneath 50 µM go in the True pile, the rest go in the False pile.

Compound	Label value
CCC(=O)N1c2ccccc2CCC1C(=O)Nc1cc(C(F)(F)F)cc(C(F)(F)F)c1 (stereo not drawn)	True
O=C(Nc1ccccc1)C1CCc2ccccc2N1 (stereo not drawn)	False
O=C(Nc1ccc(C(F)(F)F)cc1)C1CCc2ccccc2N1 (stereo not drawn)	True
CCCCCCCCC(=O)N1c2ccccc2CCC1C(=O)Nc1ccccc1O (stereo not drawn)	False
CC(=O)N1c2ccccc2CCC1C(=O)Nc1ccccc1C(F)(F)F (stereo not drawn)	False
O=C(Nc1cc(C(F)(F)F)cc(C(F)(F)F)c1)C1CCc2ccccc2N1C(=O)c1ccc(Cl)cc1 (stereo not drawn)	True
O=C(Nc1ccccc1C(F)(F)F)C1CCc2ccccc2N1 (stereo not drawn)	False

====

System: ACHN
Procedure details: Cytotoxicity against human ACHN cells after 72 hrs by sulforhodamine B assay
Format: functional
log10 of GI50 by entry:
Reported property: log10 of GI50 (log10 of the value in µM)

Compound	log10 of GI50
CCCCCCCCC(=O)N1c2ccccc2CCC1C(=O)Nc1ccccc1C(F)(F)F (stereo not given)	0.92
O=C(Nc1ccccc1O)C1CCc2ccccc2N1C(=O)c1ccc(Cl)cc1 (stereo not given)	1.29
O=C(Nc1ccccc1C(F)(F)F)C1CCc2ccccc2N1C(=O)c1ccccc1Cl (stereo not given)	0.59
O=C(Nc1ccccc1O)C1CCc2ccccc2N1C(=O)c1ccccc1Cl (stereo not given)	1.65
O=C(Nc1ccccc1O)C1CCc2ccccc2N1C(=O)c1cccc(Cl)c1 (stereo not given)	1.24
O=C(Nc1cc(C(F)(F)F)cc(C(F)(F)F)c1)C1CCc2ccccc2N1C(=O)c1ccccc1Cl (stereo not given)	0.67
O=C(Nc1ccccc1O)C1CCc2ccccc2N1C(=O)c1ccccc1 (stereo not given)	0.63

====

Tested on: ACHN
Procedure details: Cytotoxicity against human ACHN cells after 72 hrs by sulforhodamine B assay
Format: functional
Sorting guide: entries reporting GI50 beneath 0.8 µM go in the true (1) pile, the rest go in the false (0) pile.

Molecule	Label value
COc1ccc(NC(=O)C2CCc3ccccc3N2)cc1 (centres undefined)	false (0)
O=C(Nc1ccccc1C(F)(F)F)C1CCc2ccccc2N1C(=O)c1cccc(Cl)c1 (centres undefined)	true (1)
O=C(Nc1cc(C(F)(F)F)cc(C(F)(F)F)c1)C1CCc2ccccc2N1 (centres undefined)	false (0)
O=C(Nc1ccccc1C(F)(F)F)C1CCc2ccccc2N1C(=O)c1ccccc1 (centres undefined)	false (0)
CCCC(=O)N1c2ccccc2CCC1C(=O)Nc1cc(C(F)(F)F)cc(C(F)(F)F)c1 (centres undefined)	false (0)
COc1cccc2c1C(=O)c1c(O)c3c(c(O)c1C2=O)C[C@@](O)(C(=O)CO)C[C@@H]3O[C@H]1C[C@H](N)[C@H](O)[C@H](C)O1 [DOXORUBICIN]	true (1)
CCC(=O)N1c2ccccc2CCC1C(=O)Nc1ccccc1C(F)(F)F (centres undefined)	false (0)
O=C(Nc1cc(C(F)(F)F)cc(C(F)(F)F)c1)C1CCc2ccccc2N1C(=O)c1ccccc1 (centres undefined)	false (0)

====

System: ACHN
Procedure details: Cytotoxicity against human ACHN cells after 72 hrs by sulforhodamine B assay
Type: functional

Compound	Relation	GI50, µM
CCCCCCCCC(=O)N1c2ccccc2CCC1C(=O)Nc1cc(C(F)(F)F)cc(C(F)(F)F)c1 (stereo not given)	=	4.52
CCCC(=O)N1c2ccccc2CCC1C(=O)Nc1ccccc1C(F)(F)F (stereo not given)	>	70
O=C(Nc1ccccc1O)C1CCc2ccccc2N1 (stereo not given)	=	3.99
CC(=O)N1c2ccccc2CCC1C(=O)Nc1ccccc1O (stereo not given)	=	50.7
O=C(Nc1cc(C(F)(F)F)cc(C(F)(F)F)c1)C1CCc2ccccc2N1C(=O)c1cccc(Cl)c1 (stereo not given)	=	0.813
